src = patent US11629201B2

Test system: PC-3 PIP/flu tumor-bearing mice
EXPERIMENTAL DETAILS: Biodistribution studies in PC-3 PIP/flu tumor-bearing mice
CONDITION CONTEXT: 24 h p.i.; PC-3 PIP tumor
Quick reference: Tumor-to-liver of the listed items.
Provide a numeric answer; units are not to be included.

Examples with their reported Tumor-to-liver follow.
[ask] Give reported Tumor-to-liver value for O=C(O)CCC(NC(=O)NC(CCCCNC(=O)C(Cc1ccc2ccccc2c1)NC(=O)C1CCC(n2cc(CC(NC(=O)CN3CCN(CC(=O)O)CCN(CC(=O)O)CCN(CC(=O)O)CC3)C(=O)NC(CCCCNC(=O)CCCc3ccc(I)cc3)C(=O)O)nn2)CC1)C(=O)O)C(=O)O (stereo not drawn) [^177Lu-PSMA-ALB-01, metal not drawn]
[reply] 13.5

[ask] Please report Tumor-to-liver for the following molecule: O=C(O)CCC(NC(=O)NC(CCCCNC(=O)C(Cc1ccc2ccccc2c1)NC(=O)C1CCC(CNC(=O)C(CCCCNC(=O)CN2CCN(CC(=O)O)CCN(CC(=O)O)CCN(CC(=O)O)CC2)NC(=O)CCCCCCC(=O)NC(CCCCNC(=O)CCCc2ccc(I)cc2)C(=O)O)CC1)C(=O)O)C(=O)O (stereo not drawn) [^177Lu-PSMA-ALB-04, metal not drawn]
[reply] 4.76

New cases:
[ask] Recall and state the measured Tumor-to-liver for Cc1ccc(CCCC(=O)NCCCC[C@H](NC(=O)CCC(C(=O)O)N2CCN(CC(=O)O)CCN(CC(=O)O)CC2)C(=O)NC[C@H]2CC[C@H](C(=O)N[C@H](Cc3ccc4ccccc4c3)C(=O)NCCCC[C@@H](NC(=O)N[C@H](CCC(=O)O)C(=O)O)C(=O)O)CC2)cc1 (stereo partly drawn) [^64Cu-PSMA-ALB-89, metal not drawn] .
[reply] 23.6

* * *

Test system: PC-3 PIP/flu tumor-bearing mice
EXPERIMENTAL DETAILS: Biodistribution studies in PC-3 PIP/flu tumor-bearing mice
CONDITION CONTEXT: 4 h p.i.
METRIC: Spleen (% IA/g)
# unit: % IA/g | format: bare number

[ask] Output Spleen of O=C(O)CCC(NC(=O)NC(CCCCNC(=O)C(Cc1ccc2ccccc2c1)NC(=O)C1CCC(CNC(=O)C(CCCCNC(=O)CN2CCN(CC(=O)O)CCN(CC(=O)O)CCN(CC(=O)O)CC2)NC(=O)CC(NC(=O)CC(NC(=O)CC(NC(=O)CCCc2ccc(I)cc2)C(=O)O)C(=O)O)C(=O)O)CC1)C(=O)O)C(=O)O (centres unmarked) [^177Lu-PSMA-ALB-07, metal not drawn]
[reply] 3.41

Next item in the queue.
[ask] Answer with the recorded Spleen of Cc1ccc(CCCC(=O)NCCCCC(NC(=O)CN2CCN(CC(=O)O)CCN(CC(=O)O)CCN(CC(=O)O)CC2)C(=O)NCC2CCC(C(=O)NC(Cc3ccc4ccccc4c3)C(=O)NCCCCC(NC(=O)NC(CCC(=O)O)C(=O)O)C(=O)O)CC2)cc1 (centres unmarked) [44Sc-PSMA-ALB-06, metal not drawn] only.
[reply] 4.10

* * *

Test system: PC-3 PIP/flu tumor-bearing mice
EXPERIMENTAL DETAILS: Biodistribution studies in PC-3 PIP/flu tumor-bearing mice
CONDITION CONTEXT: 4 h p.i.
METRIC: PC-3 PIP Tumor (% IA/g)
Your answer should be a plain number; it is taken to be in % IA/g.

Here are 5 compounds together with their reported answers.
[ask] Give measured PC-3 PIP Tumor for O=C(O)CCC(NC(=O)NC(CCCCNC(=O)C(Cc1ccc2ccccc2c1)NC(=O)C1CCC(CNC(=O)C(CCCCNC(=O)CN2CCN(CC(=O)O)CCN(CC(=O)O)CCN(CC(=O)O)CC2)NC(=O)CC(NC(=O)CC(NC(=O)CCCc2ccc(I)cc2)C(=O)O)C(=O)O)CC1)C(=O)O)C(=O)O (centres unmarked) [^177Lu-PSMA-ALB-05, metal not drawn] (PC-3 PIP/flu tumor-bearing mice).
[reply] 75.3

[ask] Please report PC-3 PIP Tumor with PC-3 PIP/flu tumor-bearing mice for item O=C(O)CCC(NC(=O)NC(CCCCNC(=O)C(Cc1ccc2ccccc2c1)NC(=O)C1CCC(CNC(=O)C(CCCCNC(=O)CCCc2ccc(I)cc2)NC(=O)CN2CCN(CC(=O)O)CCN(CC(=O)O)CCN(CC(=O)O)CC2)CC1)C(=O)O)C(=O)O (centres unmarked) [^177Lu-PSMA-ALB-03, metal not drawn] .
[reply] 19.9

[ask] State, for PC-3 PIP/flu tumor-bearing mice, measured PC-3 PIP Tumor of the compound listed here: Cc1ccc(CCCC(=O)NC(CC(=O)NC(CC(=O)NC(CC(=O)NC(CCCCNC(=O)CN2CCN(CC(=O)O)CCN(CC(=O)O)CCN(CC(=O)O)CC2)C(=O)NCC2CCC(C(=O)NC(Cc3ccc4ccccc4c3)C(=O)NCCCCC(NC(=O)NC(CCC(=O)O)C(=O)O)C(=O)O)CC2)C(=O)O)C(=O)O)C(=O)O)cc1 (centres unmarked) [^177Lu-PSMA-ALB-08, metal not drawn]
[reply] 46.9

[ask] State recorded PC-3 PIP Tumor with PC-3 PIP/flu tumor-bearing mice, entry Cc1ccc(CCCC(=O)NCCCCC(NC(=O)CN2CCN(CC(=O)O)CCN(CC(=O)O)CCN(CC(=O)O)CC2)C(=O)NCC2CCC(C(=O)NC(Cc3ccc4ccccc4c3)C(=O)NCCCCC(NC(=O)NC(CCC(=O)O)C(=O)O)C(=O)O)CC2)cc1 (centres unmarked) [^177Lu-PSMA-ALB-06, metal not drawn] , no comment.
[reply] 76.08

[ask] Answer briefly: PC-3 PIP Tumor recorded on PC-3 PIP/flu tumor-bearing mice for O=C(O)CCC(NC(=O)NC(CCCCNC(=O)C(Cc1ccc2ccccc2c1)NC(=O)C1CCC(n2cc(CC(NC(=O)CN3CCN(CC(=O)O)CCN(CC(=O)O)CCN(CC(=O)O)CC3)C(=O)NC(CCCCNC(=O)CCCc3ccc(I)cc3)C(=O)O)nn2)CC1)C(=O)O)C(=O)O (centres unmarked) [^177Lu-PSMA-ALB-01, metal not drawn]
[reply] 20.4

Next:
[ask] Name the value of PC-3 PIP Tumor reported for O=C(O)CCC(NC(=O)NC(CCCCNC(=O)C(Cc1ccc2ccccc2c1)NC(=O)C1CCC(CNC(=O)C(CCCCNC(=O)CN2CCN(CC(=O)O)CCN(CC(=O)O)CCN(CC(=O)O)CC2)NC(=O)CC(NC(=O)CC(NC(=O)CC(NC(=O)CCCc2ccc(I)cc2)C(=O)O)C(=O)O)C(=O)O)CC1)C(=O)O)C(=O)O (centres unmarked) [^177Lu-PSMA-ALB-07, metal not drawn] when tested on PC-3 PIP/flu tumor-bearing mice.
[reply] 63.5

[ask] Find the measured PC-3 PIP Tumor of Cc1ccc(CCCC(=O)NCCCCC(NC(=O)CN2CCN(CC(=O)O)CCN(CC(=O)O)CCN(CC(=O)O)CC2)C(=O)NCC2CCC(C(=O)NC(Cc3ccc4ccccc4c3)C(=O)NCCCCC(NC(=O)NC(CCC(=O)O)C(=O)O)C(=O)O)CC2)cc1 (centres unmarked) [44Sc-PSMA-ALB-06, metal not drawn] with PC-3 PIP/flu tumor-bearing mice as test system.
[reply] 61.7

* * *

Tested on: PC-3 PIP/flu tumor-bearing mice
EXPERIMENTAL DETAILS: Biodistribution studies in PC-3 PIP/flu tumor-bearing mice
CONDITION CONTEXT: 24 h p.i.
METRIC: Spleen (% IA/g)
Express your answer in % IA/g, writing the number without its unit.

[ask] Please indicate recorded Spleen of O=C(O)CCC(NC(=O)NC(CCCCNC(=O)C(Cc1ccc2ccccc2c1)NC(=O)C1CCC(n2cc(CC(NC(=O)CN3CCN(CC(=O)O)CCN(CC(=O)O)CCN(CC(=O)O)CC3)C(=O)NC(CCCCNC(=O)CCCc3ccc(I)cc3)C(=O)O)nn2)CC1)C(=O)O)C(=O)O (centres unmarked) [^177Lu-PSMA-ALB-01, metal not drawn] measured with PC-3 PIP/flu tumor-bearing mice.
[reply] 3.60

Let us move to another entry and its Spleen.
[ask] Send back PC-3 PIP/flu tumor-bearing mice Spleen of O=C(O)CCC(NC(=O)NC(CCCCNC(=O)C(Cc1ccc2ccccc2c1)NC(=O)C1CCC(CNC(=O)C(CCCCNC(=O)CCCc2ccc(I)cc2)NC(=O)CN2CCN(CC(=O)O)CCN(CC(=O)O)CCN(CC(=O)O)CC2)CC1)C(=O)O)C(=O)O (centres unmarked) [^177Lu-PSMA-ALB-03, metal not drawn] only.
[reply] 3.75

* * *

Test system: PC-3 PIP/flu tumor-bearing mice
EXPERIMENTAL DETAILS: Biodistribution studies in PC-3 PIP/flu tumor-bearing mice
CONDITION CONTEXT: 4 h p.i.; PC-3 PIP tumor
METRIC: Tumor-to-blood

[ask] Supply measured Tumor-to-blood of O=C(O)CCC(NC(=O)NC(CCCCNC(=O)C(Cc1ccc2ccccc2c1)NC(=O)C1CCC(CNC(=O)C(CCCCNC(=O)CN2CCN(CC(=O)O)CCN(CC(=O)O)CCN(CC(=O)O)CC2)NC(=O)CC(NC(=O)CC(NC(=O)CC(NC(=O)CCCc2ccc(I)cc2)C(=O)O)C(=O)O)C(=O)O)CC1)C(=O)O)C(=O)O (centres unmarked) [^177Lu-PSMA-ALB-07, metal not drawn] in your reply.
[reply] 9327 ± 1.75

Alright, here's another compound for you.
[ask] Output Tumor-to-blood of O=C(O)CCC(NC(=O)NC(CCCCNC(=O)C(Cc1ccc2ccccc2c1)NC(=O)C1CCC(CNC(=O)C(CCCCNC(=O)CN2CCN(CC(=O)O)CCN(CC(=O)O)CCN(CC(=O)O)CC2)NC(=O)CC(NC(=O)CC(NC(=O)CCCc2ccc(I)cc2)C(=O)O)C(=O)O)CC1)C(=O)O)C(=O)O (centres unmarked) [^177Lu-PSMA-ALB-05, metal not drawn]
[reply] 7.43 ± 1.43
